Test: Redox properties by differential pulse and cyclic voltammetry
Type: physicochemical
Settings: cyclic voltammetry, physiological pH

compound	reversibility of the oxidation reaction
CS(=O)(=O)[O-].O=C(/C=C/c1ccc(O)c(O)c1)NCCCCCCCC[P+](c1ccccc1)(c1ccccc1)c1ccccc1 [AntiOxCIN3]	reversible reaction
CS(=O)(=O)[O-].O=C(/C=C/c1ccc(O)c(O)c1)NCCCCCC[P+](c1ccccc1)(c1ccccc1)c1ccccc1 [AntiOxCIN2]	reversible reaction

----------
System: rat liver mitochondria (RLM)
Experiment: Mitochondrial transmembrane electric potential (ΔΨ) of RLM, safranine fluorescence
Format: biochemical
Conditions: 2.5 μM
readout: initial slight hyperpolarization (mV)
Response body: numeric value in mV, unit text excluded.

compound	system	resultUnit	initial slight hyperpolarization
CS(=O)(=O)[O-].O=C(/C=C/c1cc(O)c(O)c(O)c1)NCCCCCCCCCC[P+](c1ccccc1)(c1ccccc1)c1ccccc1 [AntiOxCIN7]	rat liver mitochondria (RLM)	mV	25
CS(=O)(=O)[O-].O=C(/C=C/c1ccc(O)c(O)c1)NCCCCCCCCCC[P+](c1ccccc1)(c1ccccc1)c1ccccc1 [AntiOxCIN6]	rat liver mitochondria (RLM)	mV	10
CS(=O)(=O)[O-].O=C(/C=C/c1ccc(O)c(O)c1)NCCCCCCCC[P+](c1ccccc1)(c1ccccc1)c1ccccc1 [AntiOxCIN3]	rat liver mitochondria (RLM)	mV	10

Attention now shifts to the item below.
Incoming: Look up initial slight hyperpolarization: CS(=O)(=O)[O-].O=C(/C=C/c1cc(O)c(O)c(O)c1)NCCCCCCCC[P+](c1ccccc1)(c1ccccc1)c1ccccc1 [AntiOxCIN5]
Outgoing: 25
